experiment_summary: Cytotoxicity against human Huh7.5 cells measured after 48 hrs by MTS assay
Assay type: toxicity, cell-based, Huh-7
experimental_context: Huh7.5 cells
value_kind: CC50 at 48 h

{"columns": ["molecule", "data_value"],
 "data": [
  ["CCOC(=O)[C@@H]1C[C@@H]2/C(=N/O)CCCC[C@@H]2N1S(=O)(=O)c1ccc(C)cc1 (racemic)", "> 200 µM"],
  ["CCOC(=O)[C@@H]1C[C@@H]2[C@@H](O)CCCC[C@@H]2N1S(=O)(=O)c1ccc(C)cc1 (racemic)", "> 200 µM"],
  ["O=C1CCCC[C@@H]2[C@@H]1[C@H](c1cccc(F)c1)CN2Cc1ccccc1 (racemic)", "> 50 µM"],
  ["Cl.Cl.Fc1cccc([C@@H]2CN(Cc3ccccc3)[C@@H]3CCCCCN[C@H]32)c1 (racemic)", "< 50 µM"],
  ["Cc1ccc(S(=O)(=O)N2[C@H](C(=O)N3CCOCC3)C[C@@H]3C(=O)CCCC[C@@H]32)cc1 (racemic)", "> 200 µM"],
  ["Cc1ccc(S(=O)(=O)N2[C@H]3CCCCC(=O)[C@@]3(C)C[C@H]2C(=O)O)cc1 (racemic)", "> 200 µM"],
  ["CCOC(=O)[C@@H]1C[C@@H]2C(=O)CCCC[C@@H]2N1S(=O)(=O)c1ccc(Cl)cc1 (racemic)", "> 200 µM"]
]}

---

Reported Ratio CC50/EC50 by item:
experiment_summary: Selectivity index, ratio of CC50 for human Huh7.5 cells to EC50 for HCV genotype 2a infected in human Huh7.5-FGR-JC1-Rluc2A replicon cells
Parameters: species or system Huh-7

{"columns": ["molecule", "relation", "Ratio CC50/EC50"],
 "data": [
  ["CCOC(=O)[C@H]1C[C@H]2C(=O)CCCC[C@H]2N1S(=O)(=O)c1ccc(C)cc1 (racemic)", ">", 32.8],
  ["CCOC(=O)[C@@H]1C[C@@H]2C(=O)CCCC[C@@H]2N1S(=O)(=O)c1ccc(Cl)cc1 (racemic)", "=", 8.4],
  ["Cc1ccc(S(=O)(=O)N2[C@H](C(=O)O)C[C@@H]3/C(=N/Nc4ccccc4)CCCC[C@@H]32)cc1 (racemic)", ">", 7.6],
  ["CCOC(=O)[C@@H]1C[C@@H]2C(=O)CCCC[C@H]2N1S(=O)(=O)c1ccc(C)cc1 (racemic)", "=", 22.9],
  ["CCOC(=O)[C@@H]1C[C@@H]2NC(=O)CCCC[C@@H]2N1S(=O)(=O)c1ccc(C)cc1 (racemic)", "=", 17.4],
  ["CCOC(=O)[C@@H]1C[C@]2(C)C(=O)CCCC[C@@H]2N1S(=O)(=O)c1ccc(C)cc1 (racemic)", "=", 14.1],
  ["CCOC(=O)[C@@H]1C[C@@H]2C(=O)CCCC[C@@H]2N1C(=O)c1ccccc1 (racemic)", ">", 13.9],
  ["CCOC(=O)[C@@H]1C[C@@H]2C(=O)CCCC[C@@H]2N1S(=O)(=O)c1ccc(C(C)(C)C)cc1 (racemic)", ">", 15.4],
  ["O=C1CCCC[C@@H]2[C@H](C[C@H](Cc3ccccc3)N2Cc2ccccc2)N1 (racemic)", ">", 8.8],
  ["O=C1CCCC[C@@H]2[C@@H]1[C@H](c1cccc(F)c1)CN2Cc1ccccc1 (racemic)", ">", 31.8]
]}

Taken from ChEMBL document CHEMBL3865803.
